Target: UniProtKB Q99J21
Sequence (Q99J21 whole entry): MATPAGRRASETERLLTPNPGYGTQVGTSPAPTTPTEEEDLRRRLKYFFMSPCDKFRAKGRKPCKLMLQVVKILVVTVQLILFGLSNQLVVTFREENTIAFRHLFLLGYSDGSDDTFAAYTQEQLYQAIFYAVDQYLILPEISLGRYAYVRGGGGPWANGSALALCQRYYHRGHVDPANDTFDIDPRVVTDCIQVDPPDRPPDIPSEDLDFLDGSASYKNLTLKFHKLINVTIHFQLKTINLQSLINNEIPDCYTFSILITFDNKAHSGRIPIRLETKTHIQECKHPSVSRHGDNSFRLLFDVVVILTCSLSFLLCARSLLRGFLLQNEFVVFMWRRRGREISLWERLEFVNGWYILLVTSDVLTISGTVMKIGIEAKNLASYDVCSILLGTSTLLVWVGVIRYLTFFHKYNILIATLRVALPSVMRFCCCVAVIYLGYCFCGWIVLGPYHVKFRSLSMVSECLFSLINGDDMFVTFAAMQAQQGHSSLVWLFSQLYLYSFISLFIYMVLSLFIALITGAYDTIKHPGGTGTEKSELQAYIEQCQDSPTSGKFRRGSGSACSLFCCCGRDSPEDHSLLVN
Experiment: whole-endolysosome patch clamp, current activation
Type: biochemical
measure name: pEC50
Answers are plain numbers, as −log10 of the molar value.

Task item: Param item = CCCCCCCC(=O)OC[C@H](COP(=O)(O)O[C@@H]1[C@H](O)[C@H](OP(=O)(O)O)[C@@H](O)[C@H](OP(=O)(O)O)[C@H]1O)OC(=O)CCCCCCC [PI(3,5)P2 (diC8)] ; retrieve measured pEC50.
Reply: 7.32

The measurements presented in this section are drawn from paper PMC2928581.
